experiment: folding enthalpy; higher = less favourable; fluorescence melt of hairpins on a sequencing array, two-state fit; details: sodium 0.088 M
Label TRUE when folding enthalpy >= -30 kcal/mol; otherwise FALSE.

Below are worked cases with known answers.
GATCCAGGAATGGATC ((((((....)))))) :: FALSE
GCTATTTCGAAAGAAAGC (((..(((....)))))) :: TRUE
GAGGCAGGAAACTACCTC ((((.((....)).)))) :: TRUE

Q: Hello, I need to know if GCACTGCGAAAGCAAGGC ((..(((....)))..)) has measured folding enthalpy not below -30 kcal/mol. Thanks!
A: TRUE

Q: Determine whether measured folding enthalpy meets or exceeds -30 kcal/mol for GCGGAGTACCGC ((((....))))
A: TRUE

Q: Decide: is the reported value of folding enthalpy for GTTTGGGGAAACCCAAAC (((((((....))))))) equal to or greater than -30 kcal/mol?
A: FALSE

Q: Hi team, for CGGCCCGGAAACGGACCG (((.(((....))).))) , is the recorded folding enthalpy at or above -30 kcal/mol?
A: FALSE

Q: Identify whether the reported folding enthalpy of the following sequence is -30 kcal/mol or greater: GGATTTCGAAAGAATTCC (((.(((....))).)))
A: FALSE

Q: Quick check: does GCTACGACGAAAGTCAGC (((..(((....)))))) have folding enthalpy greater than or equal to -30 kcal/mol?
A: TRUE

Q: Does the sequence GTTCCGGGAAACCGGAGC (.(((((....))))).) have recorded folding enthalpy that is -30 kcal/mol or more?
A: TRUE

====

experiment: folding enthalpy; higher = less favourable; fluorescence melt of hairpins on a sequencing array, two-state fit; conditions: sodium 0.088 M
measure: folding enthalpy (kcal/mol)
Numbers only, in kcal/mol.

Study these solved cases before continuing.
GCTCCACGAAAGTGAAGC (((.(((....))).))) :: -30.2
GACTTAGGAAACTAAGCC (.(((((....))))).) :: -21.9
CGTTCGGAAACGATCACG ((((((....)))..))) :: -13.9
GTGGGCGGAAACGCTCGC (.(.(((....))).).) :: -21.3

API: the following record is the query input.
Q: Which folding enthalpy value is on record for GCCTTGCGAAAGCCAGGC ((((.((....)).)))) ?
A: -31.4

====

test: folding enthalpy; higher = less favourable; fluorescence melt of hairpins on a sequencing array, two-state fit; settings: sodium 0.088 M
Param threshold (-20 kcal/mol) applies to folding enthalpy; output rule met when value >= threshold, rule not met when value < threshold.

GGTCTCGAAAGAGAACC ((((((....))).))) :: rule met
GATCACACAGTGATC ((((((...)))))) :: rule not met
GTCTTCGGAAACGAAAAC ((.((((....)))).)) :: rule met
GACACGCGAAAGCGCGTC (((.(((....))).))) :: rule not met
GTGTCTGGAAACAGACAC (((((((....))))))) :: rule not met
GAGAGAGCGAAAGCTCTC (((..(((....)))))) :: rule met
GCCGTCGGAAACAACGGC (((((.(....).))))) :: rule not met
GCAGTTCGAAAGAATGC (((.(((....)))))) :: rule not met
GTCCATGGAAACATGAAC ((.((((....)))).)) :: rule met
GCAGAATCGAAAGATTGC (((..(((....)))))) :: rule not met

Q: # bool: folding enthalpy of GATCCGTTACGGATC ((((((...)))))) >= -20 kcal/mol
A: rule not met

Q: Test whether the sequence GCCGGGCGAAAGCACTGC ((.(.((....)).).)) records folding enthalpy of -20 kcal/mol or higher.
A: rule met

====

assay: folding enthalpy; higher = less favourable; fluorescence melt of hairpins on a sequencing array, two-state fit; details: sodium 0.088 M
Would you mind telling me the reported folding enthalpy of each entry?
For clarity, give the value followed by its unit.

Fill in folding enthalpy for each of the 8 sequences listed.
1. GAGAACGAAAGTTACTC ((((((....))).)))
2. GCCTTCGAAAGAAGTGGC ((((((....)))..)))
3. GCCGGCGGAAACGCCAGC ((.((((....)))).))
4. GGCAACGAAAGTTAGCC ((((((....))).)))
5. GCCATGCGAAAGCCCGGC (((..((....))..)))
6. GATACTGGAAACAGTACC (.(((((....))))).)
7. GGTGTCCGAAAGGAAACC (((.(((....))).)))
8. GTCCAAGCGAAAGCTGAC (((..(((....))))))

A:
["-12.4 kcal/mol", "-22 kcal/mol", "-15.4 kcal/mol", "-37.5 kcal/mol", "-22.9 kcal/mol", "-15.7 kcal/mol", "-27.9 kcal/mol", "-14.4 kcal/mol"]

// for each sequence below, give its folding enthalpy
1. GGGACCGAAAGGTTCCC ((((((....))).)))
2. GCTTGGGGAAACCTGAGC (((..((....))..)))
3. GCTTTGTCGAAAGACAGC (((..(((....))))))
4. GCTGCCGAAAGGCGAAGC ((((((....)))..)))

A:
1. -26.7 kcal/mol
2. -30.3 kcal/mol
3. -12 kcal/mol
4. -15.5 kcal/mol

====

experiment: folding enthalpy; higher = less favourable; fluorescence melt of hairpins on a sequencing array, two-state fit; conditions: sodium 0.088 M
Decision: folding enthalpy >= -30 kcal/mol yields label 1, all other cases yield label 0.

Recorded results for 3 sequences are shown here.
GGCGACGAAAGTCCGCC ((((((....))).))) :: label 0
GCGGATGGAAACACCCGC ((((.((....)).)))) :: label 0
GATCGTTAGGACGATC ((((((....)))))) :: label 0

Q: Quick check, folding enthalpy >= -30 kcal/mol? GCTTATGGAAACACAAGC ((((.((....)).))))
A: label 1

Q: Is reported folding enthalpy greater than or equal to -30 kcal/mol here: CGCGCGGAAACGCCAGCG ((((((....)))..)))
A: label 1

Q: Reported folding enthalpy reaches at least -30 kcal/mol for GCGCGCGAAAGCGACCGC ((((((....)))..))) ?
A: label 1

Q: Tell me whether folding enthalpy is at least -30 kcal/mol here: GGGACAACGAAAGTTCCC (((..(((....))))))
A: label 1

====

assay: folding enthalpy; higher = less favourable; fluorescence melt of hairpins on a sequencing array, two-state fit; settings: sodium 0.088 M
measure: folding enthalpy (kJ/mol)
Give bare numbers, in kJ/mol.

Known results for sequences:
GCCAGCGGAAACACCGGC (((.(.(....).).))) :: -42.8
GGATCGTCGAAAGACTCC (((..(((....)))))) :: -49.2

Please look at the following sequence next.
Q: // lookup folding enthalpy for GATCTAAGCGTAGATC ((((((....))))))
A: -113

====

assay: melting temperature; fluorescence melt of hairpins on a sequencing array, two-state fit, raised by 9.35 °C to match UV melts; settings: sodium 0.088 M
Label scheme for Tm: class A = under 40 °C, class B = from 40 °C up to 60 °C, class C = 60 °C and over

Recorded results for 8 sequences are shown here.
GATCTTTTGAAGATC ((((((...)))))) :: class B
GATTAACGAAAGTTTATC (((.(((....))).))) :: class A
GCATTCCGAAAGGACTGC (((.(((....))).))) :: class B
GGAACGGAAACGTTCC ((((((....)))))) :: class C
GCGACGCGAAAGCAGCGC (((..((....))..))) :: class C
GGCAATGGAAACATTGCC (((((((....))))))) :: class C
GGGGTCGAAAGACTACCC ((((((....)))..))) :: class B
GATCAGACGAAAGTCATC (((..(((....)))))) :: class A

Now for a further sequence.
Q: Category of GATGTTACGAAAGTAATC (((..(((....)))))) :
A: class A

====

assay: melting temperature; fluorescence melt of hairpins on a sequencing array, two-state fit, raised by 9.35 °C to match UV melts; details: sodium 0.088 M
So I've got a bunch of sequences here, and I need their Tm values.
Give bare numbers, in °C.

Give Tm for all sequences that follow.
1. GCACACCGAAAGGTATGC (((.(((....))).)))
2. GAGGGCGAAAGCCTCCTC ((((((....)))..)))

A:
1: 50.8; 2: 40.5

# batch: return Tm for each of the 7 sequences below
1. GCGAGTGGAAACGCTCGC (((((.(....).)))))
2. GAAGGCGAAAGCCGGTTC ((((((....)))..)))
3. GCGAGTCATCGC ((((....))))
4. GAAGGCCGAAAGGCGTTC (((.(((....))).)))
5. GCCATGCGAAAGCTTCGC ((.(.((....)).).))
6. GAAGGGGGAAACCCCCTC ((.((((....)))).))
7. GGCACCCGAAAGGGCGCC (((.(((....))).)))

A:
1. 64
2. 43.4
3. 67.8
4. 57
5. 47.3
6. 42.4
7. 69
